Values were extracted from patent US20250326839A1.

Target: T1, human TREM2 (human, UniProt Q9NZC2 19-174, limits assumed)
T1 construct: also called triggering receptor expressed on myeloid cells 2
T1 sequence: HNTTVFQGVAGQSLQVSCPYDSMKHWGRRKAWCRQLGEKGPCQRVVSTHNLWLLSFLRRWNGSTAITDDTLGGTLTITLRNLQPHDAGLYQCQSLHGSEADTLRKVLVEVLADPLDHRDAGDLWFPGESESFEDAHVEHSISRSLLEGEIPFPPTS
Experiment: 2nd screen, 10 nM
ASSAY_READOUT: Binding Signal

# count of solved cases: 4
INSERT INTO measurements (binder, reported_measurement) VALUES
  ('V15 (antibody, V domains shown, also called 6E7 variant V15) VH: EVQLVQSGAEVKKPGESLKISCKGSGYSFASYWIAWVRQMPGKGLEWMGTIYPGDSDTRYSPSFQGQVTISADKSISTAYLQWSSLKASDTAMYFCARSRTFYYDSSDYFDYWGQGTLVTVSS VL: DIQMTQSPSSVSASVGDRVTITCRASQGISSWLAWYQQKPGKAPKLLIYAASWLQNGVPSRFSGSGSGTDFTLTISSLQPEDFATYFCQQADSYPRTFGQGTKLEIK', '4.78 fold over 6E7 parental antibody'),
  ('V37 (antibody, V domains shown, also called 6E7 variant V37) VH: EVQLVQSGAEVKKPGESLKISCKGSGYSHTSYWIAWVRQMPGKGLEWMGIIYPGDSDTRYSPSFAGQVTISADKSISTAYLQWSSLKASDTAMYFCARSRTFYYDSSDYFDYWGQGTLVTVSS VL: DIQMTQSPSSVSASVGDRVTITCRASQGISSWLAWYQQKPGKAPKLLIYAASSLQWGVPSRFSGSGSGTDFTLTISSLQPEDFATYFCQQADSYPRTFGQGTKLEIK', '3.49 fold over 6E7 parental antibody'),
  ('V4 (antibody, V domains shown, also called 6E7 variant V4) VH: EVQLVQSGAEVKKPGESLKISCKGSGYSFGSYWIAWVRQMPGKGLEWMGIIYPGDSDTRVSPSFQGQVTISADKSISTAYLQWSSLKASDTAMYFCARSRTFYYDSSDYFDYWGQGTLVTVSS VL: DIQMTQSPSSVSASVGDRVTITCRASQGISSWLAWYQQKPGKAPKLLIYAASRLQNGVPSRFSGSGSGTDFTLTISSLQPEDFATYFCQQADSYPRTFGQGTKLEIK', '5.51 fold over 6E7 parental antibody'),
  ('V77 (antibody, V domains shown, also called 6E7 variant V77) VH: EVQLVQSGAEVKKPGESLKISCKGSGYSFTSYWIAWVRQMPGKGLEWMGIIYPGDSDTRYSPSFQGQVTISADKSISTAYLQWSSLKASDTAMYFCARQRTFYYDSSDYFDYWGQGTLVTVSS VL: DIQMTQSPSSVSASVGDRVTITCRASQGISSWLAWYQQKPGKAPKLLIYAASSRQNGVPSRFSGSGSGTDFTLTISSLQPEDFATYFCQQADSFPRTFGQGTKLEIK', '1.38 fold over 6E7 parental antibody');

Consider the additional binder presented here.
Recorded Binding Signal for V62 (antibody, V domains shown, also called 6E7 variant V62) VH: EVQLVQSGAEVKKPGESLKISCKGSGYSFGSYWIAWVRQMPGKGLEWMGIIYPGDSDTRYAPSFQGQVTISADKSISTAYLQWSSLKASDTAMYFCARQRTFYYDSSGYFDYWGQGTLVTVSS VL: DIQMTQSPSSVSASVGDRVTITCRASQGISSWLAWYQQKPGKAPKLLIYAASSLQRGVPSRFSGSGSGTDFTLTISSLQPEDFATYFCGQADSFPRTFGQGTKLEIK , please? 2.89 fold over 6E7 parental antibody
